System Name: T1, human IL-2 (recombinant IL-2, Humanzyme) (human, UniProt P60568 21-153)
T1 construct: It may include the signal peptide; also called hIL-2; interleukin-2
T1 sequence (P60568 21-153 limits assumed): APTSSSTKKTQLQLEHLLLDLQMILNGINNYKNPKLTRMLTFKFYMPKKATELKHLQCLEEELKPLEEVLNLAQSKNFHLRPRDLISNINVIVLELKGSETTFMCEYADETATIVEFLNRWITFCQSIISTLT
Protocol Notes: SPR (Biacore T200), IgG captured by anti-human IgG, IL-2 injected, 25 C, 1:1 Langmuir fit
Parameter Measured: koff (s⁻¹)

>>> assay_result("F4.7.6 (antibody, V domains shown) VH: EVQLQESGPGLVKPSQTLSLTCTVSGGSISSGGYYWSWIRQHPGKGLEWIGYIYYSGSTYYNPSLKSRVTISVDTSKNQFSLKLSSVTAADTAVYYCARTPTVTGDWFDPWGQGTLVTVSS VL: NFMLTQPHSVSESPGKTVTISCTRSSGSIASNYVQWYQQRPGSSPTTVIYEDNQRPSGVPDRFSGSIDSSSNSASLTISGLKTEDEADYYCQSYDSSTVVFGGGTKLTVL")
0.00738
